Target: leukotriene B4 receptors (Cavia porcellus)
READOUT NAME: pIC50
One number for each entry, as −log10 of the molar value.

[
  {
    "MOLECULE": "CC(C)(CCCCCCSc1ncc(-c2ccccc2)c(-c2ccccc2)n1)C(=O)O",
    "pIC50": 5.60
  },
  {
    "MOLECULE": "O=C(O)c1ccc(COc2cc(-c3ccccc3)cc(-c3ccccc3)n2)cc1",
    "pIC50": 6.46
  },
  {
    "MOLECULE": "O=C(O)CCCCCOc1cc(-c2ccccc2)c2ccccc2n1",
    "pIC50": 6.15
  },
  {
    "MOLECULE": "Cc1ccc(-c2cc(OCCCCC(C)(C)C(=O)O)nc3ccccc23)cc1",
    "pIC50": 7.52
  },
  {
    "MOLECULE": "COc1ccc(-c2cc(OCCCCCC(=O)O)nc(-c3ccc(Cl)cc3)c2)cc1",
    "pIC50": 5.92
  }
]

Next, consider the following compound.
Q: Look up and report measured pIC50 for this entry: CC(C)(CCCCOc1cc(-c2ccc(Cl)cc2)c2ccccc2n1)C(=O)O
A: 7.82

====

For each record, write down the corresponding IC50.
System: guinea-pig pulmonary parenchyma
Assay: L. Parenchyma: guinea-pig pulmonary parenchyma contraction antagonism induced by LTB4 (Sirois)
Type: cell-based
Conditions: Cavia porcellus; Table XIX; guinea-pig pulmonary parenchyma contraction induced by LTB4; read-out: IC50 L. Parenchyma
Give bare numbers, in nM.

Previously resolved entries follow.
[
  {
    "MOLECULE": "O=C(O)CCCCCOc1cc(-c2ccc(F)cc2)cc(-c2ccccc2)n1",
    "IC50 (nM)": 800
  },
  {
    "MOLECULE": "O=C(O)CCCCCOc1cc(-c2ccc(Cl)cc2)cc(-c2ccccc2)n1",
    "IC50 (nM)": 100
  },
  {
    "MOLECULE": "CC(CCCCOc1cc(-c2ccc(F)cc2)cc(-c2ccccc2)n1)C(=O)O (centres unmarked)",
    "IC50 (nM)": 60
  },
  {
    "MOLECULE": "CC(C)(C)c1cc(-c2ccccc2)cc(OCCCCCC(=O)O)n1",
    "IC50 (nM)": 2000
  },
  {
    "MOLECULE": "O=C(O)CCCCCOc1cc(-c2ccc(F)cc2)cc(-c2ccccc2F)n1",
    "IC50 (nM)": 1000
  }
]

Each molecule below has a recorded value; state its IC50.
1. CCC(C)(CCCCOc1cc(-c2ccccc2)cc(-c2ccccc2)n1)C(=O)O (centres unmarked)
2. COc1ccc(-c2cc(OCCCCCC(=O)O)nc(-c3ccccc3)c2)cc1
3. CC(C)(CCCCOc1cc(-c2ccccc2)cc(-c2ccccc2)n1)C(=O)O
4. CCC(CCCCOc1cc(-c2ccccc2)cc(-c2ccccc2)n1)C(=O)O (centres unmarked)
5. COc1ccc(-c2cc(OCCCCC(C)(C)C(=O)O)nc(-c3ccccc3)c2)cc1
6. COc1ccc(-c2cc(OCCCCC(C)C(=O)O)nc(-c3ccccc3)c2)cc1 (centres unmarked)
7. O=C(O)CCCCCOc1cc(-c2ccccc2)cc(-c2ccc(F)cc2)n1
8. O=C(O)CCCCCOc1cc(-c2ccccc2F)cc(-c2ccccc2)n1

A:
[30, 1100, 10, 70, 170, 20, 1700, 1700]

Your task in this section: give IC50 for each listed record.
1. CC(C)(CCCCOc1nc(-c2ccccc2)cc(-c2ccccc2)n1)C(=O)O
2. O=C(O)CCCCCOc1cc(-c2ccccc2)cc(-c2cccc(F)c2)n1

A:
1. 1000
2. 150

For every item in the list below, what is its measured IC50?
1. COc1cccc(-c2cc(OCCCCCC(=O)O)nc(-c3ccccc3)c2)c1
2. O=C(O)CCCCCOc1cc(-c2cccc(F)c2)cc(-c2ccccc2)n1
3. CC(C)(CCCCOc1cc(-c2ccc3c(c2)OCO3)cc(-c2ccccc2)n1)C(=O)O
4. CC(CCCCOc1cc(-c2ccc(Cl)cc2)cc(-c2ccccc2)n1)C(=O)O (centres unmarked)

A:
1. 200
2. 200
3. 140
4. 70

====

Target: leukotriene B4 receptors (Cavia porcellus, UniProt H0VYV8)
Sequence (H0VYV8 1-348): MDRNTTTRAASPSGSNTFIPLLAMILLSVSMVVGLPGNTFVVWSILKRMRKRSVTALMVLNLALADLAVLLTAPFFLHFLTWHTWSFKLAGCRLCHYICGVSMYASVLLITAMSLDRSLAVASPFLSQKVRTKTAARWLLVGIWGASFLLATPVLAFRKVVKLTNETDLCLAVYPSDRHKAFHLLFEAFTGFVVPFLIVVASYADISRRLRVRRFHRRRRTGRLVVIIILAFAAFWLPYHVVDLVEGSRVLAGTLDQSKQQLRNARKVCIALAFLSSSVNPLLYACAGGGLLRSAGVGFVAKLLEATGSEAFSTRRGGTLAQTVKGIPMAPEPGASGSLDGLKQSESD
Assay: biochemical
Assay type: binding, guinea-pig
Details: Table XIX; guinea-pig spleen membranes, tritium-labelled LTB4; read-out: IC50 Binding (Cheng)
For each record, check the reported IC50: if it is below 0.1 µM write t, else write f.

Example entries and their recorded answers appear below.
[
  {
    "COMPOUND": "Cc1cccc(-c2cc(OCCCCCC(=O)O)nc(-c3ccccc3)c2)c1",
    "ASSAY TARGET": "leukotriene B4 receptors (Cavia porcellus, UniProt H0VYV8)",
    "CATEGORY LABEL": "t"
  },
  {
    "COMPOUND": "COC(=O)CCCCCOc1cc(-c2ccccc2)cc(-c2ccccc2)n1",
    "ASSAY TARGET": "leukotriene B4 receptors (Cavia porcellus, UniProt H0VYV8)",
    "CATEGORY LABEL": "t"
  },
  {
    "COMPOUND": "O=C(O)CCCCCOc1cc(-c2ccc(Cl)cc2)c2ccccc2n1",
    "ASSAY TARGET": "leukotriene B4 receptors (Cavia porcellus, UniProt H0VYV8)",
    "CATEGORY LABEL": "t"
  }
]

Q: IC50 under 0.1 µM? Item: CN(C)c1ccc(-c2cc(OCCCCC(C)(C)C(=O)O)nc3ccccc23)cc1
A: t

Q: Is the reported IC50 for O=C(O)CCCCCOc1cc(-c2ccccc2)cc(-c2ccccc2Cl)n1 strictly below 0.1 µM?
A: t

Q: Decide: IC50 of Cc1cc(-c2ccccc2)cc(OCCCCCC(=O)O)n1 strictly below 0.1 µM?
A: f

Q: Given the entry O=C(O)CCCCCOc1cc(-c2cccc(Cl)c2)cc(-c2ccccc2)n1 , would its reported IC50 be below 0.1 µM?
A: t

Q: A record lists CC(C)(CCCCOc1cc(-c2ccc(N)cc2)cc(-c2ccccc2)n1)C(=O)O . Is its IC50 below 0.1 µM?
A: t

Q: Is 0.1 µM strictly greater than the compound's reported IC50? compound: CC(CCCCOc1cc(-c2ccc(F)cc2)cc(-c2ccccc2)n1)C(=O)O (stereo not drawn)
A: t

Q: State whether 0.1 µM exceeds IC50 recorded for CC(C)(CCCCOc1cc(-c2ccc(C(F)(F)F)cc2)c2ccccc2n1)C(=O)O .
A: f

Q: Consider CC(C)(CCCCOc1cc(-c2ccc(Cl)c(Cl)c2)c2ccccc2n1)C(=O)O . Does its IC50 lie strictly below 0.1 µM?
A: f

Q: Threshold test, IC50 < 0.1 µM: O=C(O)CCCCCOc1cc(-c2ccc(NC(=O)C(F)(F)F)cc2)cc(-c2ccccc2)n1
A: f

Q: Bench note: check whether O=C(O)CCCCCOc1cc(-c2ccccc2)cc(-c2ccc(Cl)cc2)n1 shows IC50 below 0.1 µM
A: f

Q: Strictly below 0.1 µM: is that where IC50 of COc1ccc(-c2cc(OCCCCC(C)C(=O)O)nc3ccccc23)cc1 (stereo not drawn) sits?
A: t

Q: Consider the compound COc1cccc(-c2cc(OCCCCC(C)(C)C(=O)O)nc(-c3ccccc3)c2)c1 . Is its IC50 strictly less than 0.1 µM?
A: t

Q: Report whether reported IC50 is lower than 0.1 µM (strictly) for c1ccc(-c2cc(-c3ccc4c(c3)OCO4)cc(OCCCCCc3nnn[nH]3)n2)cc1
A: t

Q: Decide: IC50 of O=C(O)CCCCCCCOc1ncc(-c2ccccc2)c(-c2ccccc2)n1 strictly below 0.1 µM?
A: f

====

Tested on: guinea-pig pulmonary parenchyma
Assay: L. Parenchyma: guinea-pig pulmonary parenchyma contraction antagonism induced by LTB4 (Sirois)
Type: cell-based
Details: Cavia porcellus; Table XIX; guinea-pig pulmonary parenchyma contraction induced by LTB4; read-out: IC50 L. Parenchyma
pIC50: −log10 of the molar value.
// label = t if pIC50 is not less than 7, otherwise f

[
  {
    "MOLECULE": "NC(=O)CCCCCOc1cc(-c2ccccc2)cc(-c2ccccc2)n1",
    "CATEGORY LABEL": "f"
  },
  {
    "MOLECULE": "COc1ccc(-c2cc(OCCCCCC(=O)O)nc(-c3ccc(Cl)cc3)c2)cc1",
    "CATEGORY LABEL": "f"
  },
  {
    "MOLECULE": "COC(=O)CCCCCOc1cc(-c2ccccc2)cc(-c2ccccc2)n1",
    "CATEGORY LABEL": "f"
  },
  {
    "MOLECULE": "CC(CCCCOc1cc(-c2ccccc2)cc(-c2ccccc2)n1)C(=O)O (stereo not shown)",
    "CATEGORY LABEL": "t"
  },
  {
    "MOLECULE": "CC(C)(CCCCOc1cc(-c2ccc(F)cc2)cc(-c2ccccc2)n1)C(=O)O",
    "CATEGORY LABEL": "f"
  },
  {
    "MOLECULE": "COc1cccc(-c2cc(OCCCCC(C)C(=O)O)nc(-c3ccccc3)c2)c1 (stereo not shown)",
    "CATEGORY LABEL": "t"
  }
]

Now turn to the next molecule.
Q: # bool: pIC50 of CC(C)(CCCCOc1cc(-c2ccccc2)cc(-c2ccccc2)n1)c1nnn[nH]1 >= 7
A: t
